Test: Tested for inhibitory concentration required to inhibit 50% of histone deacetylase (HDAC) from human T cell leukemia Jurkat cell
Assay type: cell-based
RECORDED_METRIC: IC50 (nM)
Enter your answer as a number in nM; do not include the unit.

Could you share which IC50 value was measured for "CC(/C=C/C(=O)NO)=C\[C@@H](C)C(=O)c1ccc(N(C)C)cc1" ? 3.3
